assay: AUC (0 to inf) in Han Wistar rat at 2.1 mg/kg, po by LC-MS/MS analysis; format: ADME, organism-based; parameters: time infinity, dose 2.1 mg/kg, route po; settings: in vivo
readout kind: AUC(0-inf) (µg·h/mL)
# number only, unit µg·h/mL dropped from output

Fill in the blank: the reported AUC(0-inf) of "CCNC(=O)c1cc(OC)c2c(c1)nc(-c1ccc(N3[C@@H](C)CC[C@@H]3C)nc1)n2C[C@@H]1CN(C)CCO1" is ____.
0.669

* * *

experiment: Half life in CD1 mouse at 0.49 mg/kg, iv by LC-MS/MS analysis; format: ADME, organism-based; details: in vivo
readout kind: half-life (min)
# number only, unit min dropped from output

Fill in the blank: the reported half-life of "CCNC(=O)c1cc(OC)c2c(c1)nc(-c1ccc(N3[C@@H](C)CC[C@@H]3C)nc1)n2C[C@@H]1CN(C)CCO1" is ____.
45
